Measured values drawn from patent US9108983B2 for this set.

Item-by-item account of IC50
- Experimental target: Bcl-2 protein (histag-Bcl-2, UniProtKB P10415) (Homo sapiens (Human), UniProt P10415)
- Sequence (P10415 whole entry): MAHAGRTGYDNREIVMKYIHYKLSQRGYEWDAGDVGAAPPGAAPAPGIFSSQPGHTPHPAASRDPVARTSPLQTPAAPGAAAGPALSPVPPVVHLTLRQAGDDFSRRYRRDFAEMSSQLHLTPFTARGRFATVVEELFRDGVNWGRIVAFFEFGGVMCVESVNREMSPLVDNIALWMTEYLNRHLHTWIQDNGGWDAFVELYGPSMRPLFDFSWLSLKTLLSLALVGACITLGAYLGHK
- Protocol notes: Inhibition of Bcl-2 by the fluorescence polarisation technique
- Type: binding
- Setup conditions: incubation for 2 hours, read-out: IC50 (nM) Bcl-2 FP
Where a name gives a salt, the structure may show the parent alone.
Assay metric: IC50 (nM)

Molecule: Cc1c(C(=O)N(c2ccccc2)c2ccc(O)cc2)cc(-c2cc(Cl)ccc2C(=O)N2Cc3ccccc3C[C@H]2CCCN2CCOCC2)n1C [Example 392, hydrochloride]
Experimental target: Bcl-2 protein (histag-Bcl-2, UniProtKB P10415) (Homo sapiens (Human), UniProt P10415)
Measurement units: nM
Recorded result: 3.8

Molecule: Cc1c(C(=O)N(C)c2ccc(O)cc2)cc(-c2cc(CNC(=O)NCc3ccccc3)ccc2C(=O)N2Cc3ccccc3C[C@H]2C)n1C
Experimental target: Bcl-2 protein (histag-Bcl-2, UniProtKB P10415) (Homo sapiens (Human), UniProt P10415)
Measurement units: nM
Recorded result: 26.7

Molecule: Cc1nn(C)cc1N(C(=O)c1cc(-c2cc(Cl)ccc2C(=O)N2Cc3ccccc3C[C@H]2CN2CCOCC2)n(C)c1C)c1ccc(O)cc1 [Example 431, hydrochloride]
Experimental target: Bcl-2 protein (histag-Bcl-2, UniProtKB P10415) (Homo sapiens (Human), UniProt P10415)
Measurement units: nM
Recorded result: 3

Molecule: Cc1c(C(=O)N(C)c2ccc(O)cc2)cc(-c2cc(CCNC(=O)NCc3ccccc3)ccc2C(=O)N2Cc3ccccc3C[C@H]2C)n1C
Experimental target: Bcl-2 protein (histag-Bcl-2, UniProtKB P10415) (Homo sapiens (Human), UniProt P10415)
Measurement units: nM
Recorded result: 75

Molecule: Cc1c(C(=O)N(c2ccc(O)cc2)c2cnn(C)c2)cc(-c2cc3c(cc2C(=O)N2Cc4ccccc4C[C@H]2C)OCO3)n1CCN1CCOCC1 [Example 96, hydrochloride]
Experimental target: Bcl-2 protein (histag-Bcl-2, UniProtKB P10415) (Homo sapiens (Human), UniProt P10415)
Measurement units: nM
Recorded result: 13.5

Molecule: Cc1c(N(C(=O)c2cc(-c3cc(F)ccc3C(=O)N3Cc4ccccc4C[C@H]3CN3CCOCC3)n(C)c2C)c2ccc(O)cc2)cc(C#N)n1C [Example 421, hydrochloride]
Experimental target: Bcl-2 protein (histag-Bcl-2, UniProtKB P10415) (Homo sapiens (Human), UniProt P10415)
Measurement units: nM
Recorded result: 2.5
